Data credit: ChEMBL document CHEMBL4706517

# experimentalTarget: Acetylcholinesterase (Homo sapiens, UniProt P22303)
# Sequence (P22303 whole entry): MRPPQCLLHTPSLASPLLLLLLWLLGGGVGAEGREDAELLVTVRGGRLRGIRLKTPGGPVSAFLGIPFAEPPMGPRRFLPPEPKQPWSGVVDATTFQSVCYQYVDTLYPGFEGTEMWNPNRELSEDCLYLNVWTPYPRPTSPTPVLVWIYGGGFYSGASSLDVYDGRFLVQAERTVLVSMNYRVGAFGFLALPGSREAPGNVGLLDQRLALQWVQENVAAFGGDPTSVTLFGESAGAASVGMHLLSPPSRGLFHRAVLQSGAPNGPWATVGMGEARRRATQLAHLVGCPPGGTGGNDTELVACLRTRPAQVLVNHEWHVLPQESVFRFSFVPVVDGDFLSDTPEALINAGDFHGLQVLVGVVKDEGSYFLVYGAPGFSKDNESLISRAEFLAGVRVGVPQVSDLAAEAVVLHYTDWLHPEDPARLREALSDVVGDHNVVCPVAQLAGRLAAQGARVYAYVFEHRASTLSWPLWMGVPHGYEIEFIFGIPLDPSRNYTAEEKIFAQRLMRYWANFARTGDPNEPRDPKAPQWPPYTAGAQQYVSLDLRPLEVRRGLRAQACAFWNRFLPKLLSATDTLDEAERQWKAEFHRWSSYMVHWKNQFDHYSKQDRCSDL
measuredParameter: Ki (nM)
# unit: nM | format: bare number

# molecule COc1ccc2cc3[n+](cc2c1OCc1ccc(C(F)(F)F)cc1)CCc1cc2c(cc1-3)OCO2.[Br-] ; its Ki = 0.456

* * *

# experimentalTarget: Acetylcholinesterase (Homo sapiens, UniProt P22303)
# methodDescription: Inhibition of recombinant human acetylcholinesterase using acetylthiocholine iodide as substrate preincubated with enzyme for 5 mins followed by substrate addition and measured at 2 mins interval by Ellman's method
Classify: t when IC50 is strictly less than 2000 nM; f when IC50 is not.

{"molecule": "COc1ccc2cc3[n+](cc2c1OCc1cccc(Br)c1)CCc1cc2c(cc1-3)OCO2", "discreteLabel": "f"}
{"molecule": "COc1ccc2cc3[n+](cc2c1OCc1ccccc1)CCc1cc2c(cc1-3)OCO2.[Br-]", "discreteLabel": "f"}
{"molecule": "COc1ccc2cc3[n+](cc2c1OCc1ccccc1C)CCc1cc2c(cc1-3)OCO2", "discreteLabel": "f"}
{"molecule": "COc1ccc2cc3[n+](cc2c1OCc1ccc([N+](=O)[O-])cc1)CCc1cc2c(cc1-3)OCO2.[Br-]", "discreteLabel": "t"}
{"molecule": "COc1ccc2cc3[n+](cc2c1OCc1cc(C)cc(C)c1)CCc1cc2c(cc1-3)OCO2", "discreteLabel": "f"}

Criterion: IC50 strictly below 2000 nM. Is it met by COc1ccc2cc3[n+](cc2c1OCc1ccc(Cl)cc1)CCc1cc2c(cc1-3)OCO2 ?
f

Criterion: IC50 strictly below 2000 nM. Is it met by COc1cccc(COc2c(OC)ccc3cc4[n+](cc23)CCc2cc3c(cc2-4)OCO3)c1 ?
f

Criterion: IC50 strictly below 2000 nM. Is it met by COc1ccc2cc3[n+](cc2c1OC(C)c1ccccc1)CCc1cc2c(cc1-3)OCO2.[Br-] (configuration not stated) ?
t

Criterion: IC50 strictly below 2000 nM. Is it met by COc1ccc2cc3[n+](cc2c1OCc1ccccc1Br)CCc1cc2c(cc1-3)OCO2 ?
t

Criterion: IC50 strictly below 2000 nM. Is it met by COc1ccc2cc3[n+](cc2c1OCc1ccc(SC)cc1)CCc1cc2c(cc1-3)OCO2 ?
f

* * *

# experimentalTarget: Prolyl endopeptidase (Homo sapiens)
# Sequence (P48147 whole entry): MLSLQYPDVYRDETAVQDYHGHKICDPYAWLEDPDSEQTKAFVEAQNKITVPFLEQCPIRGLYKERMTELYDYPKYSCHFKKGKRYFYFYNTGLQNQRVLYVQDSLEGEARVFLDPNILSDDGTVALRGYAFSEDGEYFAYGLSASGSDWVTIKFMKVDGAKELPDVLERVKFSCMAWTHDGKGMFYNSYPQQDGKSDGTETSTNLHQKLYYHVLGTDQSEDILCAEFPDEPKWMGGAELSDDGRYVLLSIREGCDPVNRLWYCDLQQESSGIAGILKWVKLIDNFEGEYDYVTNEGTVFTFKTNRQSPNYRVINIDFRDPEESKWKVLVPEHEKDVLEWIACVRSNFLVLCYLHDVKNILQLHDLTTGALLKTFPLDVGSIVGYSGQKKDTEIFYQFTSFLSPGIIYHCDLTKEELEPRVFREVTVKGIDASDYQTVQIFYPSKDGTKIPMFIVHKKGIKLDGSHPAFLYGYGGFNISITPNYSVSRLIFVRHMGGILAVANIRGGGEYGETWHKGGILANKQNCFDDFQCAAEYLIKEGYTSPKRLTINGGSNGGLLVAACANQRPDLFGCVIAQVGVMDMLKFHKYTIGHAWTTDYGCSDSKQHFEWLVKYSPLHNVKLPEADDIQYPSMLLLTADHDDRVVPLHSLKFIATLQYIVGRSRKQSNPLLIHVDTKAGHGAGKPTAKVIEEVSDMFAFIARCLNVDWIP
Classify: met when IC50 is strictly less than 40 µM; not met when IC50 is not.

Example entries and their recorded answers appear below.
{"smilesRecord": "COc1ccc2cc3[n+](cc2c1OCc1ccccc1C)CCc1cc2c(cc1-3)OCO2", "experimentalTarget": "Prolyl endopeptidase (Homo sapiens)", "discreteLabel": "not met"}
{"smilesRecord": "COc1ccc2cc3[n+](cc2c1OCc1ccc(C#N)cc1)CCc1cc2c(cc1-3)OCO2", "experimentalTarget": "Prolyl endopeptidase (Homo sapiens)", "discreteLabel": "met"}
{"smilesRecord": "COc1ccc2cc3[n+](cc2c1OCc1cccc([N+](=O)[O-])c1)CCc1cc2c(cc1-3)OCO2.[Br-]", "experimentalTarget": "Prolyl endopeptidase (Homo sapiens)", "discreteLabel": "met"}

Criterion: IC50 strictly below 40 µM. Is it met by COc1ccc2cc3[n+](cc2c1OCc1cccc(Br)c1)CCc1cc2c(cc1-3)OCO2 ?
not met
